Biological target: CFTR channel in human colonic T84 cells (Homo sapiens, UniProt P13569)
Construct: results in the phosphorylation and opening of CFTR anion channels; host or cells: human colonic T84 cells
Sequence (P13569 whole entry): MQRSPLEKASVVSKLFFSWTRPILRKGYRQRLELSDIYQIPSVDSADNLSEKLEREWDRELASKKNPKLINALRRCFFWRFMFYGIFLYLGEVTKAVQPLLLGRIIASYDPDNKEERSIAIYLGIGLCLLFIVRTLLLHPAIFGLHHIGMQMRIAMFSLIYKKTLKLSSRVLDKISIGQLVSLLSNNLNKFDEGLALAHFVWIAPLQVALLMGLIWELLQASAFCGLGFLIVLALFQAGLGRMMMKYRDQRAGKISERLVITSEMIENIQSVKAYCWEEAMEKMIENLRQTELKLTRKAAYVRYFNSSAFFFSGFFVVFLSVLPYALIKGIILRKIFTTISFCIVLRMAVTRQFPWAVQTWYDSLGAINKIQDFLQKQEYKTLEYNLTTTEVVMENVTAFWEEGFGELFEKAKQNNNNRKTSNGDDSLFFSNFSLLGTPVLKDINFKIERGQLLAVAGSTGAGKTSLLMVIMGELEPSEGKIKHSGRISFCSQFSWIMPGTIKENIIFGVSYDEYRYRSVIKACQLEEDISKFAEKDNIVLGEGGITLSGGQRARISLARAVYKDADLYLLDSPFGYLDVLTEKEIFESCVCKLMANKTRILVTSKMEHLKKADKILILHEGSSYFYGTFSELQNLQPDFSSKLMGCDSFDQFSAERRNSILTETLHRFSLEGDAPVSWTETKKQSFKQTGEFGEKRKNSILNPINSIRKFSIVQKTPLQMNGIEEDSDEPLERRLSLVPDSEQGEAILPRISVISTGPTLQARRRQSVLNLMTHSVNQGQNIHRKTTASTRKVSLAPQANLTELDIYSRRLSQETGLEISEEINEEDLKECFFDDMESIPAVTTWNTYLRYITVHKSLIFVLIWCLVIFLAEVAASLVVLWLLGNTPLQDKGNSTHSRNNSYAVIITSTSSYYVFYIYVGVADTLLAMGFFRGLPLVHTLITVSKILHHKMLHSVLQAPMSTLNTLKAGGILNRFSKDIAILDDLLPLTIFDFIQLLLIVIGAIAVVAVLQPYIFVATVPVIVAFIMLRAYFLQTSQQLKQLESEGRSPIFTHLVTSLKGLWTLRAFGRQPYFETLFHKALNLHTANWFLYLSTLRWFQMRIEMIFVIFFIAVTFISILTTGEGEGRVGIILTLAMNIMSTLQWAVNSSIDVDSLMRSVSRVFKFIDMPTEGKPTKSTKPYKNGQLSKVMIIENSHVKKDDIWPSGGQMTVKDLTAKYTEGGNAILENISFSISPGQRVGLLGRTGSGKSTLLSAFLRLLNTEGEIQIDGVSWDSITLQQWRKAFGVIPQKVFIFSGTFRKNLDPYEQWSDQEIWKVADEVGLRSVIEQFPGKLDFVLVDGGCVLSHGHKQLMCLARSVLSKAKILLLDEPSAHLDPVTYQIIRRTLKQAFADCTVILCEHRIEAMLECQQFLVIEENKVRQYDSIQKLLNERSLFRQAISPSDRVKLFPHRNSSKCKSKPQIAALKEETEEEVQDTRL
Experiment: T84 assay (FLIPR membrane potential dye, forskolin/IBMX-stimulated CFTR)
Format: cell-based
Settings: average of at least 2 runs unless annotated n = 1
Property Label: IC50
Hey, just the number and the unit after it is fine.

[in] Consider the compound CN(Cc1ccccc1)Cc1ccc(COc2ncc(-c3cc(Cl)c(O)c(Cl)c3)nn2)cc1 . State its measured IC50.
[out] 2.66 µM

###

Molecular target: CFTR channel in human colonic T84 cells (Homo sapiens, UniProt P13569)
Construct: results in the phosphorylation and opening of CFTR anion channels; host or cells: human colonic T84 cells
Test: T84 assay (FLIPR membrane potential dye, forskolin/IBMX-stimulated CFTR)
Format: cell-based
Conditions: average of at least 2 runs unless annotated n = 1
# IC50 annotations
Give just the number in µM; leave the unit off.

{"columns": ["Structure As Smiles", "IC50 (µM)"],
 "data": [
  ["Oc1c(Cl)cc(-c2cnc(OCc3ccc(CNCc4ccc(C(F)(F)F)nc4)cc3)nn2)cc1Cl", 7.77],
  ["Oc1c(Cl)cc(-c2cnc(OCc3ccc(CN(Cc4ccccc4)Cc4ccccc4)cc3)nn2)cc1Cl", 6.61],
  ["O=Cc1ccc(COc2ncc(-c3cc(Cl)c(O)c(Cl)c3)nn2)cc1", 10.7]
]}

Now for another entry.
[in] Consider the molecule Oc1c(Cl)cc(-c2cnc(OCc3ccc(CN4CCN(c5ccc(F)cc5F)CC4)cc3)nn2)cc1Cl . State its measured IC50.
[out] 1.92

###

Target: CFTR channel in human colonic T84 cells (Homo sapiens, UniProt P13569)
Construct: results in the phosphorylation and opening of CFTR anion channels; host or cells: human colonic T84 cells
Experiment: T84 assay (FLIPR membrane potential dye, forskolin/IBMX-stimulated CFTR)
Format: cell-based
Conditions: average of at least 2 runs unless annotated n = 1
Binary call on IC50 with cut-off 8 µM: strictly below means 1, and equality or higher means 0.

{"columns": ["Compound", "Target Desc", "Class"],
 "data": [
  ["Oc1c(Br)cc(-c2cnc(OCc3ccc(C(F)(F)F)cc3)nn2)cc1Br", "CFTR channel in human colonic T84 cells (Homo sapiens, UniProt P13569)", 1],
  ["Cc1ccc(C)c(OCc2ncc(-c3cc(Br)c(O)c(Br)c3)nn2)c1", "CFTR channel in human colonic T84 cells (Homo sapiens, UniProt P13569)", 0],
  ["Oc1c(Br)cc(-c2cnc(COc3ccc(F)cc3F)nn2)cc1Br", "CFTR channel in human colonic T84 cells (Homo sapiens, UniProt P13569)", 0]
]}

[in] Dear colleague, could you confirm whether IC50 of Oc1c(Cl)cc(-c2cnc(OCCc3cccc4ccccc34)nn2)cc1Cl falls below 8 µM? Thanks.
[out] 1

[in] Dear colleague, could you confirm whether IC50 of Oc1c(Br)cc(-c2cnc(OCc3ccccc3)nn2)cc1Br falls below 8 µM? Thanks.
[out] 1

###

Target: CFTR channel in human colonic T84 cells (Homo sapiens, UniProt P13569)
Construct: results in the phosphorylation and opening of CFTR anion channels; host or cells: human colonic T84 cells
Assay: T84 assay (FLIPR membrane potential dye, forskolin/IBMX-stimulated CFTR)
Type: cell-based
Conditions: average of at least 2 runs unless annotated n = 1
Binary call on IC50 with cut-off 3 µM: strictly below means condition met, and equality or higher means condition not met.

Known results for compounds:
{"columns": ["Structure As Smiles", "Class"],
 "data": [
  ["Oc1c(Br)cc(-c2cnc(OCc3cccc(Cl)c3Cl)nn2)cc1Br", "condition met"],
  ["Oc1c(Cl)cc(-c2cnc(COc3cccc(Cl)c3Cl)nn2)cc1Cl", "condition not met"],
  ["CC(C)(C)OC(=O)N1CCN(Cc2cc(Cl)ccc2OCc2ncc(-c3cc(Br)c(O)c(Br)c3)nn2)CC1", "condition not met"],
  ["Cc1cc(Cl)ccc1COc1ncc(-c2cc(Br)c(O)c(Br)c2)nn1", "condition met"],
  ["CN(C)CCOc1ccc(CN(C)Cc2ccc(COc3ncc(-c4cc(Cl)c(O)c(Cl)c4)nn3)cc2)cc1", "condition not met"],
  ["Oc1c(Br)cc(-c2cnc(COc3ccc(-c4ccccc4)cc3)nn2)cc1Br", "condition not met"],
  ["Oc1c(Br)cc(-c2cnc(OCCc3ccc(Br)cc3)nn2)cc1Br", "condition met"],
  ["Oc1c(Cl)cc(-c2cnc(OCc3ccc(Cl)cc3)nn2)cc1Cl", "condition met"],
  ["Oc1c(Br)cc(-c2cnc(OCCc3ccccc3)nn2)cc1Br", "condition met"],
  ["Oc1c(Cl)cc(-c2cnc(OCc3ccc(CNCc4ccncc4)cc3)nn2)cc1Cl", "condition not met"]
]}

[in] Dear colleague, could you confirm whether IC50 of Oc1c(Cl)cc(-c2cnc(OCc3ccc(CNCc4cccc5ccccc45)cc3)nn2)cc1Cl falls below 3 µM? Thanks.
[out] condition not met

[in] Dear colleague, could you confirm whether IC50 of Oc1c(Br)cc(-c2cnc(OCc3ccncc3)nn2)cc1Br falls below 3 µM? Thanks.
[out] condition not met

[in] Dear colleague, could you confirm whether IC50 of Cc1ccc(C(C)C)cc1OCc1ncc(-c2cc(Br)c(O)c(Br)c2)nn1 falls below 3 µM? Thanks.
[out] condition not met

[in] Dear colleague, could you confirm whether IC50 of Oc1c(Br)cc(-c2cnc(C(O)(c3ccc(Cl)cc3)c3ccc(Cl)cc3)nn2)cc1Br falls below 3 µM? Thanks.
[out] condition not met

[in] Dear colleague, could you confirm whether IC50 of Oc1c(Cl)cc(-c2cnc(OCCNCc3ccccc3)nn2)cc1Cl falls below 3 µM? Thanks.
[out] condition met

###

# IC50 annotations
Target: CFTR channel in human colonic T84 cells (Homo sapiens, UniProt P13569)
Construct: results in the phosphorylation and opening of CFTR anion channels; host or cells: human colonic T84 cells
Experiment: T84 assay (FLIPR membrane potential dye, forskolin/IBMX-stimulated CFTR)
Format: cell-based
Details: average of at least 2 runs unless annotated n = 1
Structures can show the parent of a compound that is named as a salt.
Hey, just the number and the unit after it is fine.

[in] Write IC50 of Oc1c(Cl)cc(-c2cnc(OCc3ccc(CN4CCN(c5ccccc5)CC4)cc3)nn2)cc1Cl [Compound 143] ; system used: CFTR channel in human colonic T84 cells (Homo sapiens, UniProt P13569)
[out] 3.75 µM

[in] Write IC50 of Oc1c(Cl)cc(-c2cnc(OCc3ccc(CN4Cc5ccc(F)cc5C4)cc3)nn2)cc1Cl [Compound 178] ; system used: CFTR channel in human colonic T84 cells (Homo sapiens, UniProt P13569)
[out] 3.31 µM

[in] Write IC50 of CN(Cc1ccc(COc2ncc(-c3cc(Cl)c(O)c(Cl)c3)nn2)cc1)CC(O)c1ccccc1 (stereo not drawn) [Compound 161, formate salt] ; system used: CFTR channel in human colonic T84 cells (Homo sapiens, UniProt P13569)
[out] 18.3 µM

[in] Write IC50 of Oc1c(Cl)cc(-c2cnc(OCc3ccc(F)cc3)nn2)cc1Cl [Compound 146] ; system used: CFTR channel in human colonic T84 cells (Homo sapiens, UniProt P13569)
[out] 5.21 µM

[in] Write IC50 of Oc1c(Cl)cc(-c2cnc(OCCNc3ccccc3)nn2)cc1Cl [Compound 125] ; system used: CFTR channel in human colonic T84 cells (Homo sapiens, UniProt P13569)
[out] 25.8 µM

[in] Write IC50 of CC(C)(C)C(=O)N1CCN(Cc2ccc(COc3ncc(-c4cc(Cl)c(O)c(Cl)c4)nn3)cc2)CC1 [Compound 188] ; system used: CFTR channel in human colonic T84 cells (Homo sapiens, UniProt P13569)
[out] 10.3 µM

[in] Write IC50 of OCCN(Cc1ccc(COc2ncc(-c3cc(Cl)c(O)c(Cl)c3)nn2)cc1)Cc1cccnc1 [Compound 191] ; system used: CFTR channel in human colonic T84 cells (Homo sapiens, UniProt P13569)
[out] 19.8 µM

[in] Write IC50 of CN(Cc1ccc(COc2ncc(-c3cc(Cl)c(O)c(Cl)c3)nn2)cc1)Cc1ccc(-c2ccccn2)cc1 [Compound 197] ; system used: CFTR channel in human colonic T84 cells (Homo sapiens, UniProt P13569)
[out] 2.64 µM

[in] Write IC50 of CN(Cc1ccc(COc2ncc(-c3cc(Cl)c(O)c(Cl)c3)nn2)cc1)Cc1cccc2ccccc12 [Compound 181] ; system used: CFTR channel in human colonic T84 cells (Homo sapiens, UniProt P13569)
[out] 9.15 µM

[in] Write IC50 of CC(Oc1ncc(-c2cc(Br)c(O)c(Br)c2)nn1)c1ccc(Cl)cc1 (stereo not drawn) [Compound 11] ; system used: CFTR channel in human colonic T84 cells (Homo sapiens, UniProt P13569)
[out] 0.84 µM

[in] Write IC50 of CC1(C)Cc2cccc(OCc3ncc(-c4cc(Br)c(O)c(Br)c4)nn3)c2O1 [Compound 128] ; system used: CFTR channel in human colonic T84 cells (Homo sapiens, UniProt P13569)
[out] 28.8 µM

[in] Write IC50 of CCC(=O)N1CCN(Cc2ccc(COc3ncc(-c4cc(Cl)c(O)c(Cl)c4)nn3)cc2)CC1 [Compound 221] ; system used: CFTR channel in human colonic T84 cells (Homo sapiens, UniProt P13569)
[out] 17.4 µM

[in] Write IC50 of CC(C)(C)OC(=O)N1CCC(COc2ncc(-c3cc(Cl)c(O)c(Cl)c3)nn2)(c2ccccc2)CC1 [Compound 139] ; system used: CFTR channel in human colonic T84 cells (Homo sapiens, UniProt P13569)
[out] 3.04 µM

[in] Write IC50 of CC(C)(c1ccccc1)c1ccc(OCc2ncc(-c3cc(Br)c(O)c(Br)c3)nn2)cc1 [Compound 35] ; system used: CFTR channel in human colonic T84 cells (Homo sapiens, UniProt P13569)
[out] 7.31 µM

[in] Write IC50 of OCCN(Cc1cccnc1)c1ncc(-c2cc(Cl)c(O)c(Cl)c2)nn1 [Compound 160] ; system used: CFTR channel in human colonic T84 cells (Homo sapiens, UniProt P13569)
[out] 22.4 µM

[in] Write IC50 of CN(Cc1ccc(COc2ncc(-c3cc(Cl)c(O)c(Cl)c3)nn2)cc1)Cc1cccc(CN2CCCC2)c1 [Compound 212, formate salt] ; system used: CFTR channel in human colonic T84 cells (Homo sapiens, UniProt P13569)
[out] 4.9 µM

[in] Write IC50 of CN(Cc1ccc(COc2ncc(-c3cc(Cl)c(O)c(Cl)c3)nn2)cc1)Cc1ccc(CN2CCCCC2)cc1 [Compound 208, formate salt] ; system used: CFTR channel in human colonic T84 cells (Homo sapiens, UniProt P13569)
[out] 8.24 µM

[in] Write IC50 of COc1ccc(Cl)cc1COc1ncc(-c2cc(Br)c(O)c(Br)c2)nn1 [Compound 5] ; system used: CFTR channel in human colonic T84 cells (Homo sapiens, UniProt P13569)
[out] 0.7 µM
